These measurements were taken from patent US5763430A.

# Test system: E. coli
# protocol-text: antibiotic activity (MIC)
# Format: cell-based
# assay-context: Escherichia coli; E. coli; read-out: MIC
reported-property: MIC (µg/mL)

| compound | assay-system | reported-property | recorded-measurement |
| --- | --- | --- | --- |
| COC(=O)CC[C@@H](C)[C@H]1CC[C@H]2[C@@H]3[C@H](O)C[C@H]4C[C@@H](NCCCNCCCCN)CC[C@]4(C)[C@H]3CC[C@]12C | E. coli | MIC | 32 |
| COC(=O)CC[C@@H](C)[C@H]1CC[C@H]2[C@@H]3CC[C@@H]4C[C@H](NCCN)CC[C@]4(C)[C@H]3C[C@H](O)[C@]12C | E. coli | MIC | 8 |
| CC(C)C(O)CC[C@@H](C)[C@H]1CC[C@H]2[C@@H]3[C@H](O)C[C@H]4C[C@@H](NCCCNCCCCN(C)C)CC[C@]4(C)[C@H]3CC[C@]12C (stereo partly drawn) [MSI-1239A] | E. coli | MIC | 64 |
| C[C@H](CCC(=O)O)[C@H]1CC[C@H]2[C@@H]3[C@H](O)C[C@@H]4C[C@@H](NCCCNCCCCNCCCN)CC[C@]4(C)[C@H]3CC[C@]12C | E. coli | MIC | 256 |
| COC(=O)CC[C@@H](C)[C@H]1CC[C@H]2[C@@H]3[C@H](O)C[C@@H]4C[C@@H](NCCCNCCCCN)CC[C@]4(C)[C@H]3CC[C@]12C | E. coli | MIC | 256 |

====

Collected MIC values appear next to each entry.
# Test system: E. coli
# protocol-text: antibiotic activity (MIC)
# Type: cell-based
# assay-context: Escherichia coli; E. coli; read-out: MIC

| compound | display-unit | relation | MIC |
| --- | --- | --- | --- |
| C[C@H](CCC(=O)O)[C@H]1CC[C@H]2[C@@H]3C[C@@H](O)[C@H]4C[C@@H](NCCN)CC[C@]4(C)[C@H]3CC[C@]12C | µg/mL | > | 256 |
| COC(=O)CC[C@@H](C)[C@H]1CC[C@H]2[C@@H]3CC[C@H]4C[C@@H](NCCCNCCCCNCCCN)CC[C@]4(C)[C@H]3CC[C@]12C | µg/mL | = | 32 |
| COC(=O)CC[C@@H](C)[C@H]1CC[C@H]2[C@@H]3[C@H](O)C[C@@H]4C[C@H](NCCN)CC[C@]4(C)[C@H]3CC[C@]12C | µg/mL | = | 16 |
| CC(C)CCC[C@@H](C)[C@H]1CC[C@H]2[C@@H]3[C@H](O)C[C@H]4C[C@@H](N)CC[C@]4(C)[C@H]3CC[C@]12C | µg/mL | > | 256 |
| CC(C)C(O)CC[C@@H](C)[C@H]1CC[C@H]2[C@@H]3[C@H](O)C[C@H]4C[C@H](NCCCNCCCCN)CC[C@]4(C)[C@H]3CC[C@]12C (stereo partly drawn) | µg/mL | = | 128 |
| CC(C)CCC[C@@H](C)[C@H]1CC[C@H]2[C@@H]3[C@H](O)C[C@H]4C[C@@H](NCCCNCCCCN)CC[C@]4(C)[C@H]3CC[C@]12C | µg/mL | = | 64 |
| C[C@H](CCC(=O)O)[C@H]1CC[C@H]2[C@@H]3[C@H](O)C[C@H]4C[C@@H](NCCCNCCCCN)CC[C@]4(C)[C@H]3CC[C@]12C | µg/mL | = | 64 |
| C[C@H](CCC(=O)O)[C@H]1CC[C@H]2[C@@H]3[C@H](O)C[C@@H]4C[C@H](NCCN)CC[C@]4(C)[C@H]3CC[C@]12C | µg/mL | = | 64 |

====

Reported MIC values for the following molecules.
# Tested on: E. coli
# protocol-text: antibiotic activity (MIC)
# Type: cell-based
# assay-context: Escherichia coli; E. coli; read-out: MIC
reported-property: MIC (µg/mL)

| molecule | display-unit | recorded-measurement |
| --- | --- | --- |
| COC(=O)CC[C@@H](C)[C@H]1CC[C@H]2[C@@H]3[C@H](O)C[C@H]4C[C@@H](NCCCNCCCCNCCCN)CC[C@]4(C)[C@H]3CC[C@]12C [Compound 396] | µg/mL | 64 |
| C[C@H](CCC(=O)O)[C@H]1CC[C@H]2[C@@H]3[C@H](O)C[C@@H]4C[C@H](NCCCNCCCCNCCCN)CC[C@]4(C)[C@H]3CC[C@]12C [Compound 412] | µg/mL | 64 |
| C[C@H](CCC(=O)O)[C@H]1CC[C@H]2[C@@H]3[C@H](O)C[C@@H]4C[C@@H](NCCN)CC[C@]4(C)[C@H]3CC[C@]12C [Compound 415] | µg/mL | 128 |
| CC(C)CCC[C@@H](C)[C@H]1CC[C@H]2[C@@H]3[C@H](O)C[C@H]4C[C@H](NCCCNCCCCN)CC[C@]4(C)[C@H]3CC[C@]12C [Compound 370] | µg/mL | 32 |
| CC(C)CCC[C@@H](C)[C@H]1CC[C@H]2[C@@H]3CC[C@H]4C[C@@H](NCCCNCCCCNCCCN)CC[C@]4(C)[C@H]3CC[C@]12C [Compound 353] | µg/mL | 128 |
| COC(=O)CC[C@@H](C)[C@H]1CC[C@H]2[C@@H]3CC[C@@H]4C[C@H](NCCCNCCCCNCCCN)CC[C@]4(C)[C@H]3C[C@H](O)[C@]12C [Compound 448] | µg/mL | 16 |
| COC(=O)CC[C@@H](C)[C@H]1CC[C@H]2[C@@H]3C[C@@H](O)[C@H]4C[C@@H](NCCCNCCCCNCCCN)CC[C@]4(C)[C@H]3CC[C@]12C [Compound 466] | µg/mL | 32 |
| CC(C)CCC[C@@H](C)[C@H]1CC[C@H]2[C@@H]3CC[C@H]4C[C@H](NCCCNCCCCN)CC[C@]4(C)[C@H]3CC[C@]12C [Compound 304] | µg/mL | 128 |
| C[C@H](CCC(=O)O)[C@H]1CC[C@H]2[C@@H]3C[C@@H](O)[C@H]4C[C@@H](NCCCNCCCCNCCCN)CC[C@]4(C)[C@H]3CC[C@]12C [Compound 467] | µg/mL | 16 |
| CC(C)C(O)CC[C@@H](C)[C@H]1CC[C@H]2[C@@H]3[C@H](O)C[C@H]4C[C@@H](NCCCNCCCCN)CC[C@]4(C)[C@H]3CC[C@]12C (some centres unmarked) [MSI-1232] | µg/mL | 32 |
| COC(=O)CC[C@@H](C)[C@H]1CC[C@H]2[C@@H]3[C@H](O)C[C@H]4CC(NCCCNCCCCNCCCN)CC[C@]4(C)[C@H]3CC[C@]12C (some centres unmarked) [Compound 395] | µg/mL | 32 |

====

# System: S. aureus
# protocol-text: antibiotic activity (MIC)
# Type: cell-based
# assay-context: Staphylococcus aureus; S. aureus; read-out: MIC

| test-smiles | display-unit | MIC |
| --- | --- | --- |
| CC(C)CCC[C@@H](C)[C@H]1CC[C@H]2[C@@H]3CC[C@H]4C[C@H](NCCCNCCCCNCCCN)CC[C@]4(C)[C@H]3CC[C@]12C | µg/mL | 8 |
| CC(C)CCC[C@@H](C)[C@H]1CC[C@H]2[C@@H]3CC[C@H]4C[C@@H](NCCCNCCCCN)CC[C@]4(C)[C@H]3CC[C@]12C | µg/mL | 8 |
| COC(=O)CC[C@@H](C)[C@H]1CC[C@H]2[C@@H]3C[C@@H](O)[C@H]4C[C@@H](NCCCNCCCCNCCCN)CC[C@]4(C)[C@H]3CC[C@]12C | µg/mL | 2 |
| CC(C)CCC[C@@H](C)[C@H]1CC[C@H]2[C@@H]3[C@H](O)C[C@H]4C[C@@H](N)CC[C@]4(C)[C@H]3CC[C@]12C | µg/mL | 2 |
| C[C@H](CCC(=O)O)[C@H]1CC[C@H]2[C@@H]3C[C@@H](O)[C@H]4C[C@@H](NCCCNCCCCNCCCN)CC[C@]4(C)[C@H]3CC[C@]12C | µg/mL | 16 |
| COC(=O)CC[C@@H](C)[C@H]1CC[C@H]2[C@@H]3[C@H](O)C[C@@H]4C[C@@H](NCCCNCCCCNCCCN)CC[C@]4(C)[C@H]3CC[C@]12C | µg/mL | 8 |
| COC(=O)CC[C@@H](C)[C@H]1CC[C@H]2[C@@H]3CC[C@@H]4C[C@H](NCCCNCCCCNCCCN)CC[C@]4(C)[C@H]3C[C@H](O)[C@]12C | µg/mL | 2 |

====

Entries and their measured MIC follow.
# Tested on: S. aureus
# protocol-text: antibiotic activity (MIC)
# Assay type: cell-based
# assay-context: Staphylococcus aureus; S. aureus; read-out: MIC
reported-property: MIC (µg/mL)

| test-smiles | recorded-measurement |
| --- | --- |
| C[C@H](CCC(=O)O)[C@H]1CC[C@H]2[C@@H]3[C@H](O)C[C@@H]4C[C@@H](NCCN)CC[C@]4(C)[C@H]3CC[C@]12C | 128 |
| CC(C)CCC[C@@H](C)[C@H]1CC[C@H]2[C@@H]3[C@H](O)C[C@H]4C[C@H](NCCCNCCCCN)CC[C@]4(C)[C@H]3CC[C@]12C | 4 |
| COC(=O)CC[C@@H](C)[C@H]1CC[C@H]2[C@@H]3CC[C@H]4C[C@H](NCCCNCCCCNCCCN)CC[C@]4(C)[C@H]3CC[C@]12C | 4 |
